Procedure Details: Single-dose pharmacokinetics of pantoprazole delayed-release tablet, study 2
Type: in vivo, human
Condition Notes: human, plasma, po, 20 mg
Observable: Cmax

INSERT INTO measurements (compound, observable, assay_result) VALUES
  ('COc1ccnc(C[S+]([O-])c2nc3ccc(OC(F)F)cc3[nH]2)c1OC (stereo not shown)', 'Cmax', '900 ng/mL');

---

Procedure Details: Single-dose pharmacokinetics of pantoprazole delayed-release tablet, study 2
Format: in vivo, human
Condition Notes: human, plasma, po, 40 mg
Observable: CL/F (mL/min/kg)

INSERT INTO assay_data (compound, assay_result) VALUES
  ('COc1ccnc(C[S+]([O-])c2nc3ccc(OC(F)F)cc3[nH]2)c1OC (stereo not shown) [pantoprazole]', 3);

Reference source: paper PMC3190583
